Data provenance is paper PMC6241247.

Assay: Plasma pharmacokinetics after oral administration of YCHT in model (CCl4-induced acute liver injury) rats, UHPLC-MS/MS
Conditions: Sprague-Dawley, rat, in vivo, po, 60 g/kg
measure: log10 of Tmax (log10 of the value in min)
Would you kindly interpret these values as log10 of Tmax expressed in min?

Given the compound COC(=O)C1=CO[C@@H](O[C@@H]2O[C@H](CO)[C@@H](O)[C@H](O)[C@H]2O)[C@@H]2C(CO)=CC[C@H]12 [Geniposide] , what is its reported log10 of Tmax?
1.54

Given the compound COc1cc2ccc(=O)oc2cc1O , what is its reported log10 of Tmax?
0.89

Given the compound COc1cc(O)c2c(c1)C(=O)c1cc(C)cc(O)c1C2=O , what is its reported log10 of Tmax?
2.19

Given the compound Cc1cc(O)c2c(c1)C(=O)c1cccc(O)c1C2=O , what is its reported log10 of Tmax?
1.72

Given the compound Cc1cc(O)c2c(c1)C(=O)c1cc(O)cc(O)c1C2=O , what is its reported log10 of Tmax?
1.01

Given the compound O=C(O)c1cc(O)c2c(c1)C(=O)c1cccc(O)c1C2=O , what is its reported log10 of Tmax?
1.51

Given the compound O=C1c2cccc(O)c2C(=O)c2c(O)cc(CO)cc21 , what is its reported log10 of Tmax?
1.54
